target-of-assay: CYP125 (Mycobacterium tuberculosis)
assay-explanation: biochemical
Assay type: binding
conditions-used: read-out: KD (μM) CYP125
Could you please report measured Kd for the items listed next?
The reply should be a number in µM, with the unit left off.

Item C[C@@H](NC(=O)c1cccc(Cc2ccncc2)c1)c1ccccc1 has what recorded Kd?
40

What does the record list as Kd for COc1ccc(CNc2cccc(Cc3ccncc3)c2)cc1 ?
6.4

Find the recorded Kd belonging to COc1ccc(C(C)Nc2ccc(Cc3ccncc3)cc2)cc1 (stereo not shown) and report it.
0.8

# lookup: Kd of O=C(Nc1ccc(Cc2ccncc2)cc1)[C@H](Cc1c[nH]c2ccccc12)NCc1ccccc1
0.072

Would you mind telling me what Kd value was observed for O=S(=O)(Nc1ccc(Cc2ccncc2)cc1)c1ccc(OC(F)(F)F)cc1 ?
0.55

Kd lookup needed for O=C(NCc1ccc2[nH]ccc2c1)c1cccc(Cc2ccncc2)c1 , thanks.
4

Name the recorded Kd for CS(=O)(=O)c1cccc(CNc2ccc(Cc3ccncc3)cc2)c1 .
0.35

Entry O=C(Nc1ccc(Cc2ccncc2)cc1)c1ccccc1 : reported Kd = ?
0.54

Find the recorded Kd belonging to CC(=O)Nc1ccc(Cc2ccncc2)cc1 and report it.
18

I have this compound here, O=C(Nc1ccc(Nc2ccncc2)cc1)c1ccccc1 [5b, N-(4-(Pyridin-4-ylamino)phenyl)benzamide] , and I need its recorded Kd.
11

Which Kd value is on record for COc1ccc(CNc2ccc(Cc3ccncc3)cc2)cc1 ?
0.04

Report Kd for CS(=O)(=O)Nc1ccc(Cc2ccncc2)cc1 please.
0.23

Need Kd of COc1ccc(CNc2ccc(N(C)c3ccncc3)cc2)cc1 , thanks.
2.9

Requested field: Kd. Item: C[C@@H](NC(=O)c1ccc(Cc2ccncc2)cc1)c1ccccc1
7.4

What value of Kd has been recorded for this entry: O=S(=O)(Nc1ccc(Cc2ccncc2)cc1)c1ccccc1
0.27

Look up Kd for this compound: CN(c1ccncc1)c1ccc(NC(=O)c2ccccc2)cc1
7

Which Kd is listed for O=C(NCc1ccc2[nH]ccc2c1)c1cccc(Nc2ccncc2)c1 ?
3.8

Which Kd value belongs to O=C(NCc1ccc2[nH]ccc2c1)c1ccc(Cc2ccncc2)cc1 ?
0.59

Which measured Kd value corresponds to c1ccc(Cc2ccncc2)cc1 ?
180

====

What Δλmax (nm) CYP125, fragment screen was measured for each of the following?
target-of-assay: CYP125 (Mycobacterium tuberculosis, UniProt P9WPP1)
Sequence (P9WPP1 whole entry): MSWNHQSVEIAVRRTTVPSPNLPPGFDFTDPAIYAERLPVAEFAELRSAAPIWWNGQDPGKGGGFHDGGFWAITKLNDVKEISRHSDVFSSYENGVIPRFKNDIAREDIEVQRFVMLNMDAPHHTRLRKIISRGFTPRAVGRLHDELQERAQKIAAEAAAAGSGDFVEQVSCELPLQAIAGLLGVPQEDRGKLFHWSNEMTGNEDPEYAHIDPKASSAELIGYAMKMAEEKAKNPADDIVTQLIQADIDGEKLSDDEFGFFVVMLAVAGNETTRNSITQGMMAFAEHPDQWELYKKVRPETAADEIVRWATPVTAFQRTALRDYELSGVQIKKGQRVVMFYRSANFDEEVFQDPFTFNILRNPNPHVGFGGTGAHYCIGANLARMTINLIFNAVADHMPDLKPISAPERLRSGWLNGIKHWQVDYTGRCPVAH
Assay type: binding
conditions-used: fragment 1 mM, P450 4-6 µM; Soret shift relative to DMSO (393 nm)
Kindly provide the numeric value in nm only, without the unit symbol.

Can you look up the measured Δλmax (nm) CYP125, fragment screen of OCc1ccc(-c2ccncc2)cc1 for me?
25

Δλmax (nm) CYP125, fragment screen for O=C(O)CCc1ccccc1 ?
0

What value of Δλmax (nm) CYP125, fragment screen has been reported for the following compound? Nc1ccc(Cl)nn1
0

Could you share which Δλmax (nm) CYP125, fragment screen value was measured for O=C(O)c1ccc(-c2cccnc2)cc1 ?
0

Report Δλmax (nm) CYP125, fragment screen for O=C(O)c1ccccc1-n1cccn1 please.
0

Could you tell me which Δλmax (nm) CYP125, fragment screen is on file for CCc1nc(C)c[nH]1 ?
0

Data request, read-out Δλmax (nm) CYP125, fragment screen, for c1ccc(Cc2cccnc2)cc1
28
